All figures here come from paper PMC12416549.

Measured on: T1, TNFR1 (Homo sapiens, UniProt P19438)
T1 chain: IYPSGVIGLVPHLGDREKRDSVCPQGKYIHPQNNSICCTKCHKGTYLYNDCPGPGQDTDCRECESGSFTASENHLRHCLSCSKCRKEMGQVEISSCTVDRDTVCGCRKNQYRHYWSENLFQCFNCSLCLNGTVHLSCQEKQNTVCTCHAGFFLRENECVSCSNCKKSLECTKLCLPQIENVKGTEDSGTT
Assay summary: yeast display SC50
Measure name: apparent Kd (screen) (nM)

P: L76T (designed binder) SMEEEVEKAAKEYEKKKKEAIEKHLEKLKAKDKEAAERFLKELEEAAKEYAKDEAKTMSEEEAKRRAKKYKEKVLTSELSEEEQKEIKEAEEKLVRTILKYVEEAAK
Q: E91K (designed binder) SMEEEVEKAAKEYEKKKKEAIEKHLEKLKAKDKEAAERFLKELEEAAKEYAKDEAKTMSEEEAKRRAKKYKEKVLLSELSEEEQKEIKEAKEKLVRTILKYVEEAAK
R: A67K (designed binder) SMEEEVEKAAKEYEKKKKEAIEKHLEKLKAKDKEAAERFLKELEEAAKEYAKDEAKTMSEEEAKRRKKKYKEKVLLSELSEEEQKEIKEAEEKLVRTILKYVEEAAK
S: K11T (designed binder) SMEEEVEKAATEYEKKKKEAIEKHLEKLKAKDKEAAERFLKELEEAAKEYAKDEAKTMSEEEAKRRAKKYKEKVLLSELSEEEQKEIKEAEEKLVRTILKYVEEAAK
Would you mind ranking these binders by ascending apparent Kd (screen)? I'd appreciate it if you listed the labels in the requested order. S, P, R, Q
(S: 0.446 nM, P: 0.653 nM, R: 1.54 nM, Q: 11.4 nM)
